- Measured On: Calpain small subunit 1 (Sus scrofa)
- Sequence (P04574 whole entry): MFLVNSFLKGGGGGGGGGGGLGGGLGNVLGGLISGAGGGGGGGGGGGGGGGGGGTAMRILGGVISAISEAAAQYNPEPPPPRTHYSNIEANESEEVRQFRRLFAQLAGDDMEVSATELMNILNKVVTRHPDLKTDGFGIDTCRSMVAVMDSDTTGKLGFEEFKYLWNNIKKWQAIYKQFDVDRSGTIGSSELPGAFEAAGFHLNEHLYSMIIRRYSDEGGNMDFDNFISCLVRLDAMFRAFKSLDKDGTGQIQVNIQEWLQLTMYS
- Assay Overview: Compound tested for inhibition of porcine calpain I
Non-standard residues stand in square brackets, D forms with d. Residues, ends and D or L forms follow the SMILES beside them. ξ: configuration not given here. *: point of attachment. Tos = Cc1ccc(S(=O)(=O)*)cc1; ξF = NC(Cc1ccccc1)C(=O)O; Pip = O=C(O)[CH]1CCCCN1
Metric: Ki (nM)
Give just the numeric value; nM need not be written.

input: # return recorded Ki for input Cc1ccc(S(=O)(=O)N[C@@H](CC(C)C)C(=O)NC(C=O)Cc2ccccc2)cc1 (stereo partly drawn) (Tos-Leu-[ξF]-aldehyde)
output: 20

input: # return recorded Ki for input Cc1ccc(S(=O)(=O)N2CCCCC2C(=O)NC(C=O)Cc2ccccc2)cc1 (configuration not stated) (Tos-[Pip]-Phe-aldehyde; configuration not given here)
output: 540

====

- Measured On: Cathepsin B (Homo sapiens)
- Assay Overview: Compound tested for inhibition of human liver cathepsin B
Non-standard residues stand in square brackets, D forms with d. Residues, ends and D or L forms follow the SMILES beside them. ξ: configuration not given here. *: point of attachment. Tos = Cc1ccc(S(=O)(=O)*)cc1; ξF = NC(Cc1ccccc1)C(=O)O; Pip = O=C(O)[CH]1CCCCN1
Metric: Ki (nM)
Give just the numeric value; nM need not be written.

input: # return recorded Ki for input Cc1ccc(S(=O)(=O)N[C@@H](CC(C)C)C(=O)NC(C=O)Cc2ccccc2)cc1 (stereo partly drawn) (Tos-Leu-[ξF]-aldehyde)
output: 70

input: # return recorded Ki for input Cc1ccc(S(=O)(=O)N2CCCCC2C(=O)NC(C=O)Cc2ccccc2)cc1 (configuration not stated) (Tos-[Pip]-Phe-aldehyde; configuration not given here)
output: 5260
